Data origin, for the record: paper PMC3043256

# Type: in vivo, human
# MEASUREMENT CONDITIONS: human, plasma, oral, Cmax, sunitinib with grapefruit juice when simultaneously taken; mean (range)
PROPERTY: Cmax (ng/mL)
Write the number in ng/mL without appending the unit.

Exercise: Return Cmax for the following compound: CCN(CC)CCNC(=O)c1c(C)[nH]c(/C=C2\C(=O)Nc3ccc(F)cc32)c1C [sunitinib, Sunitinib malate]
Solution: 14.4

---

# Assay type: in vivo, human
# MEASUREMENT CONDITIONS: human, plasma, oral
PROPERTY: Tmax
Quick note: unit goes after the number.

Exercise: Annotate the compound CCN(CC)CCNC(=O)c1c(C)[nH]c(/C=C2\C(=O)Nc3ccc(F)cc32)c1C [sunitinib, Sunitinib malate] with its measured Tmax.
Solution: 8.2 h

---

# Format: in vivo, human
# MEASUREMENT CONDITIONS: human, plasma, oral, AUC0–24 h, sunitinib with grapefruit juice when simultaneously taken; mean (range)
PROPERTY: AUC(0-t) (µg·h/mL)
Write it as a number; the unit µg·h/mL goes unstated.

Exercise: Note down AUC(0-t) recorded for CCN(CC)CCNC(=O)c1c(C)[nH]c(/C=C2\C(=O)Nc3ccc(F)cc32)c1C [sunitinib, Sunitinib malate]
Solution: 1.25

---

# Format: in vivo, human
# MEASUREMENT CONDITIONS: human, plasma, oral
PROPERTY: Vd/F (L)
Output spec: scalar in L, unitless text.

Exercise: Supply measured Vd/F of CCN(CC)CCNC(=O)c1c(C)[nH]c(/C=C2\C(=O)Nc3ccc(F)cc32)c1C [sunitinib, Sunitinib malate] in your reply.
Solution: 3210

---

# Assay type: in vivo, human
# MEASUREMENT CONDITIONS: human, plasma, oral
PROPERTY: half-life (h)
// return numeric value only (unit: h, not printed)

Exercise: Given the compound CCN(CC)CCNC(=O)c1c(C)[nH]c(/C=C2\C(=O)Nc3ccc(F)cc32)c1C [sunitinib, Sunitinib malate] , write its reported half-life.
Solution: 53

---

# Assay type: in vivo, human
# MEASUREMENT CONDITIONS: human, plasma, oral, AUC0–24 h, sunitinib without grapefruit juice; steady state; mean (range)
PROPERTY: AUC(0-t) (ng·h/mL)
State the answer as a number, implicitly in ng·h/mL.

Exercise: Quickly give me recorded AUC(0-t) for CCN(CC)CCNC(=O)c1c(C)[nH]c(/C=C2\C(=O)Nc3ccc(F)cc32)c1C [sunitinib, Sunitinib malate]
Solution: 1120
